Where do the numbers come from? From paper PMC4330389.

Target: T1, Mex67 (full length):Mtr2;Mtr2 (Saccharomyces cerevisiae;Saccharomyces …, UniProt Q99257;P34232 1-599;1-184, |)
T1 sequence 1: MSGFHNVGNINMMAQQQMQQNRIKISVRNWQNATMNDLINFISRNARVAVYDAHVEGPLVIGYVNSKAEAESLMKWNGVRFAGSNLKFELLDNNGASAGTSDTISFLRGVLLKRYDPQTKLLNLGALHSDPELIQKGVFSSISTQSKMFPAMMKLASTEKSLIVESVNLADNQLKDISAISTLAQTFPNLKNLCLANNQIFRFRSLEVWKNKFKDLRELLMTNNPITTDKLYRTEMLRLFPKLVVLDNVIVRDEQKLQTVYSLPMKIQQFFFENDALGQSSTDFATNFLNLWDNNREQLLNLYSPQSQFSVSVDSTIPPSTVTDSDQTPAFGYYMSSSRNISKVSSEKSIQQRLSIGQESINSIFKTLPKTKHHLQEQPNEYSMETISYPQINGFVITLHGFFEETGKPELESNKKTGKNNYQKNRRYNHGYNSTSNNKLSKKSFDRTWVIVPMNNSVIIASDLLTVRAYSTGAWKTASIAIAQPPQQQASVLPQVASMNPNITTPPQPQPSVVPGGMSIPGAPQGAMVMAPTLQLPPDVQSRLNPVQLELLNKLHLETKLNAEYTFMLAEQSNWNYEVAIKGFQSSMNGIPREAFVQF
T1 sequence 2: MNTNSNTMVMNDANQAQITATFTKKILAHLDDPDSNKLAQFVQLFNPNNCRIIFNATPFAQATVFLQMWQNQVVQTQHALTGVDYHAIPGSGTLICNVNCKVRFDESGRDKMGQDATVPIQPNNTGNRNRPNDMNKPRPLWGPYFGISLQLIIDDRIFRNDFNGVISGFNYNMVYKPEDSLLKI
Experiment: fluorescence anisotropy; 20 mM Tris pH 8.0, 50 mM NaCl, 10 nM DY-547 RNA; temperature not stated
Settings: protein: recombinant;recombinant; tags: His6 removed by TEV;; copies: 1;1
PARAMETER_MEASURED: pKd
// pKd here means minus log10 of the molar concentration (mol/L)

Ask | What does the data say about its pKd? Entry: AAAAAAAAAAAAAAA (ssRNA) [A15]
Reply | 6.59
